Origin of measurements: patent US20260200926A1

Recorded measurements of pEC50, one per entry
biological target: Human TREM2 (Homo sapiens, UniProt Q9NZC2); construct: expressed in transfected cells; experiment: Human TREM2 activity: cellular phosphorylation of Syk (AlphaLISA SureFire Ultra p-SYK) in HEK293/DAP12+TREM2 stable cell line; assay type: cell-based; settings: phospho-Syk AlphaLISA signal, HEK293/DAP12+TREM2 cells; concentration giving 50% of maximal response; read-out: EC50
Sequence (Q9NZC2 19-230): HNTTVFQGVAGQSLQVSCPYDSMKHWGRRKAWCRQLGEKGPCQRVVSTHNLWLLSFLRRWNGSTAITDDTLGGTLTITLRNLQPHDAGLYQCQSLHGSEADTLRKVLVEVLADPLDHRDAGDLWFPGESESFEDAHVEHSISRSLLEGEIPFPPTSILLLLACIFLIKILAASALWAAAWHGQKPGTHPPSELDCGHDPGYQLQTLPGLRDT
Sequence (O43914 22-113 partner): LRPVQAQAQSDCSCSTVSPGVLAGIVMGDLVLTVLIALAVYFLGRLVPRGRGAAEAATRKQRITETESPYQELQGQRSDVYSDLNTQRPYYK
pEC50: −log10 of the molar value.

Tell me its pEC50 given COCCn1c(C)nc2c(-c3ccc(Cl)cc3F)nc(N3CCOC(c4cnn(C)c4)C3)nc2c1=O (stereo not drawn) as the entry. 7.00 to 8.00

Tell me its pEC50 given Cc1nc2c(-c3ccc(C(F)(F)F)nc3)nc(N3CCC(F)(F)[C@@H](c4cnn(C)c4)C3)nc2c(=O)n1C (single isomer, unassigned) as the entry. 7.00 to 8.00

Tell me its pEC50 given Cc1nc2c(-c3cc(F)c(F)c(F)c3)nc(N3CCOC(c4cnn(C)c4)C3)nc2c(=O)n1C (stereo not drawn) as the entry. 6.00 to 7.00

Tell me its pEC50 given Cc1nc2c(-c3ccc(C(F)(F)F)cc3F)nc([C@H]3CCO[C@@H](c4cnn(C5CC5)c4)C3)cc2c(=O)n1C (single isomer, unassigned) [Example 153B] as the entry. 6.00 to 7.00

Tell me its pEC50 given Cc1nc2c(-c3cc(F)c(F)cc3F)nc(N3C[C@@H](c4cnn(C)c4)OC(C)(C)C3)cc2c(=O)n1C (single isomer, unassigned) [Example 150A] as the entry. 7.00 to 8.00

Tell me its pEC50 given Cc1nc2c(-c3ccc(C#N)cc3F)nc(N3C[C@@H](C)O[C@@H](c4cnn(C5CC5)c4)C3)cc2c(=O)n1C (single isomer, unassigned) [Example 200B] as the entry. 7.00 to 8.00

----------
target: Human TREM2 (Homo sapiens); construct: expressed in transfected cells; experiment: Human TREM2 activity: cellular phosphorylation of Syk (AlphaLISA SureFire Ultra p-SYK) in HEK293/DAP12+TREM2 stable cell line; assay type: cell-based; conditions: phospho-Syk AlphaLISA signal, HEK293/DAP12+TREM2 cells; concentration giving 50% of maximal response; read-out: EC50
measured quantity: EC50

| compound | EC50 |
| --- | --- |
| Cc1csc(C2CN(c3nc(-c4ccc(Cl)cc4F)c4nc(C)n(C)c(=O)c4n3)CCO2)n1 (stereo not drawn) | 10 to 100 nM |
| Cc1nc2c(-c3ccc(Cl)cc3F)cc(N3C[C@H](c4cnn(C)c4)OC(C)(C)C3)cc2c(=O)n1C (single isomer, unassigned) [Example 117B] | 100 to 1000 nM |
| Cc1cc([C@@H]2CN(c3nc(-c4ccc(C(F)(F)F)cc4F)c4nc(C)n(C)c(=O)c4n3)C[C@H](C)O2)ccn1 (single isomer, unassigned) [Example 179A] | 1 to 10 nM |
| Cc1nc2c(-c3ccc(C(F)(F)F)nc3)nc(N3CCOC(c4cnn(C5CC5)c4)C3)nc2c(=O)n1C (racemic) | 10 to 100 nM |
| Cn1cc(C2CN(c3nc(-c4ccc(Cl)cc4F)c4ncn(C)c(=O)c4n3)CCO2)cn1 (stereo not drawn) | 10 to 100 nM |

Now for another entry.
Specify EC50 for Cc1cc([C@H]2CN(c3nc(-c4ccc(Cl)cc4F)c4nc(C)n(C)c(=O)c4n3)CCO2)ccn1 (single isomer, unassigned) [Example 23B] , system Human TREM2 (Homo sapiens). 1 to 10 nM

----------
Recorded measurements of Emax, one per entry
target: Human TREM2 (Homo sapiens); construct: expressed in transfected cells; test: Human TREM2 activity: cellular phosphorylation of Syk (AlphaLISA SureFire Ultra p-SYK) in HEK293/DAP12+TREM2 stable cell line; type: cell-based; conditions: HEK293; maximal response relative to reference agonist example 1B (remaining examples); read-out: Emax

| molecule | measured quantity | measured |
| --- | --- | --- |
| Cc1nc2c(-c3ccc(Cl)cc3F)nc(N3CCOC(c4cn[nH]c4)C3)nc2c(=O)n1C (stereo not drawn) | Emax | < 75% |
| Cc1cc([C@H]2CN(c3cc4c(=O)n(C)c(C)nc4c(-c4ccc(C(F)(F)F)cc4F)n3)CCO2)ccn1 (single isomer, unassigned) [Example 137B] | Emax | 75 to 110% |
| Cc1cc([C@H]2CN(c3cc4c(=O)n(C)c(C)nc4c(-c4cc(F)c(F)cc4F)n3)CCO2)ccn1 (single isomer, unassigned) [Example 141B] | Emax | 75 to 110% |
| Cc1nc2c(-c3ccc(F)cc3F)nc(N3C[C@H](c4cnn(C)c4)OC(F)(F)C3)cc2c(=O)n1C (single isomer, unassigned) [Example 166B] | Emax | < 75% |

Tell me its Emax given Cc1nc2c(-c3ccc(C(F)(F)F)cc3F)nc(N3CCO[C@@H](c4cnn(C5CC5)c4)C3)nc2c(=O)n1C (single isomer, unassigned) [Example 20B] as the entry. 75 to 110%

Tell me its Emax given Cc1cc([C@H]2CN(c3nc(-c4ccc(F)cc4F)c4nc(C)n(C)c(=O)c4n3)CC(F)(F)O2)ccn1 (single isomer, unassigned) [Example 169B] as the entry. 75 to 110%

----------
target: Human TREM2 (Homo sapiens, UniProt Q9NZC2); construct: expressed in transfected cells; assay: Human TREM2 activity: cellular phosphorylation of Syk (AlphaLISA SureFire Ultra p-SYK) in HEK293/DAP12+TREM2 stable cell line; type: cell-based; conditions: HEK293; maximal response relative to reference agonist example 1B (remaining examples); read-out: Emax
measured quantity: Emax

| compound | Emax |
| --- | --- |
| Cc1nc2c(-c3ccc(C(F)(F)F)cc3F)nc(N3CCO[C@@H](c4cnn(C)c4)C3)cc2c(=O)n1C (single isomer, unassigned) [Example 126A] | 75 to 110% |
| Cc1nc2c(-c3ccc(Cl)cc3F)nc(N3C[C@H](c4cnn(C)c4)OC4(CCC4)C3)cc2c(=O)n1C (single isomer, unassigned) [Example 151B] | < 75% |
| Cc1nc2c(-c3cc(F)c(F)cc3F)nc(N3C[C@@H](c4cnn(C)c4)OC(C)(C)C3)cc2c(=O)n1C (single isomer, unassigned) [Example 150A] | 75 to 110% |
| Cc1nc2c(-c3ccc(Cl)cc3F)nc(N3C[C@@H](c4cnn(C5CC5)c4)O[C@@H](C)C3)nc2c(=O)n1C (single isomer, unassigned) [Example 178A] | 75 to 110% |
| Cc1cnccc1OC1CCN(c2nc(-c3ccc(Cl)cc3F)c3nc(C)n(C)c(=O)c3n2)CC1 | < 75% |

Specify Emax for Cc1cc([C@@H]2CN(c3cc4c(=O)n(C)c(C)nc4c(-c4ccc(Cl)cc4F)n3)CC(C)(C)O2)ccn1 (single isomer, unassigned) [Example 172A] , system Human TREM2 (Homo sapiens, UniProt Q9NZC2). < 75%

Specify Emax for Cc1nc2c(-c3ccc(Cl)cc3F)nc(N3C[C@H](c4cnn(C)c4)OC4(CC4)C3)cc2c(=O)n1C (single isomer, unassigned) [Example 144B] , system Human TREM2 (Homo sapiens, UniProt Q9NZC2). < 75%

Specify Emax for Cc1nc2c(-c3ccc(Cl)cc3F)nc(N3CCOC(c4ncon4)C3)nc2c(=O)n1C (stereo not drawn) , system Human TREM2 (Homo sapiens, UniProt Q9NZC2). 75 to 110%

Specify Emax for Cc1cc([C@H]2CN(c3cc4c(=O)n(C)c(C)nc4c(-c4ccc(F)cc4F)n3)C[C@@H](C)O2)ccn1 (single isomer, unassigned) [Example 182B] , system Human TREM2 (Homo sapiens, UniProt Q9NZC2). < 75%

Specify Emax for Cc1nc2c(-c3ccc(C(F)(F)F)cc3F)nc(N3C[C@H](c4cnn(C)c4)OC(C)(C)C3)nc2c(=O)n1C (single isomer, unassigned) [Example 100B] , system Human TREM2 (Homo sapiens, UniProt Q9NZC2). < 75%

Specify Emax for Cc1nc2c(-c3cc(F)c(F)cc3F)nc(N3CCO[C@@H](c4cnn(C5CC5)c4)C3)cc2c(=O)n1C (single isomer, unassigned) [Example 133B] , system Human TREM2 (Homo sapiens, UniProt Q9NZC2). < 75%

Specify Emax for Cc1cc([C@H]2CN(c3cc4c(=O)n(C)c(C(F)(F)F)nc4c(-c4ccc(F)cc4F)n3)C[C@@H](C)O2)ccn1 (single isomer, unassigned) [Example 189B] , system Human TREM2 (Homo sapiens, UniProt Q9NZC2). 75 to 110%

----------
Recorded measurements of pEC50, one per entry
molecular target: Human TREM2 (Homo sapiens, UniProt Q9NZC2); construct: expressed in transfected cells; test: Human TREM2 activity: cellular phosphorylation of Syk (AlphaLISA SureFire Ultra p-SYK) in HEK293/DAP12+TREM2 stable cell line; format: cell-based; details: phospho-Syk AlphaLISA signal, HEK293/DAP12+TREM2 cells; concentration giving 50% of maximal response; read-out: EC50
pEC50: −log10 of the molar value.

Some entries whose results are on file:
| compound | pEC50 |
| --- | --- |
| Cc1nc2c(-c3ccc(F)cc3F)nc(N3CCOC(c4cnn(C)c4)C3)nc2c(=O)n1C (stereo not drawn) [Example 5] | 7.00 to 8.00 |
| Cc1cc([C@H]2CN(c3cc4c(=O)n(C)c(C)nc4c(-c4ccc(C(F)(F)F)cc4F)n3)CC(C)(C)O2)ccn1 (single isomer, unassigned) [Example 163B] | 8.00 to 9.00 |
| Cc1nc2c(-c3ccc(C(F)(F)F)cc3F)nc(N3CCO[C@H](c4cnn(C)c4)C3)nc2c(=O)n1C (single isomer, unassigned) [Example 25A] | 7.00 to 8.00 |
| Cc1nc2c(-c3ccc(C(F)(F)F)nc3)nc([C@@H]3CCO[C@H](c4cnn(C5CC5)c4)C3)nc2c(=O)n1C (single isomer, unassigned) [Example 98A] | 7.00 to 8.00 |
| COCCn1cc(C2CN(c3nc(-c4ccc(Cl)cc4F)c4nc(C)n(C)c(=O)c4n3)CCO2)cn1 (stereo not drawn) [Example 69] | 7.00 to 8.00 |

Now for another entry.
Tell me its pEC50 given Cn1c(C(F)(F)F)nc2c(-c3ccc(F)cc3F)nc([C@@H]3CCO[C@H](c4cnn(C5CC5)c4)C3)nc2c1=O (single isomer, unassigned) [Example 196A] as the entry. 8.00 to 9.00
